assay: Antagonist activity at OXE receptor (unknown origin) expressed in neutrophils assessed as inhibition of 5-oxo-ETE-induced cell migration after 2 hrs by hematoxylin/chromotrope 2R staining-based microscopic analysis
Quantity Kind: IC50

For the molecule CCCCCCc1c(C(=O)CC(C)CC(=O)O)c2cc(Cl)ccc2n1C (stereo unspecified) , report IC50.
454 nM
